Measured IC50 by item
- target-under-test: GST-tagged ROR gamma ligand binding domain (LBD) (Homo sapiens, UniProt P51449)
- Construct: purchased Invitrogen
- Sequence (P51449 269-508 limits assumed): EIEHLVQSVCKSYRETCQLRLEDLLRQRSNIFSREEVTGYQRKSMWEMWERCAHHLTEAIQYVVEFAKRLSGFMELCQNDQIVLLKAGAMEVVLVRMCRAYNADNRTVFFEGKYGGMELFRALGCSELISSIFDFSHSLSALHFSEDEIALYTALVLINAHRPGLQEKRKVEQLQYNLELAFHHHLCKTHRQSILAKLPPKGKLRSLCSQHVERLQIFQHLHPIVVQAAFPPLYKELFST
- protocol-notes: TR-FRET assay for ROR gamma (Lantha Screen, co-activator peptide recruitment)
- Type: biochemical
- condition-notes: class symbols; from dose response curve; read-out: IC50 value

Example cases with answers are listed next.
                                        smi  assay_value
0  O=C(O)c1ccc(-n2cc(C(=O)c3c(Cl)cccc3Cl)c3cc(F)ccc32)c(F)c1    < 0.05 µM
1  Cc1ccccc1Oc1nn(-c2ccc(C(=O)O)cc2)c2ccccc12    < 0.05 µM
2  O=C(O)c1ccc(-n2nc(C(=O)c3c(Cl)cccc3C3CC3)c3cccnc32)cc1    < 0.05 µM
3  O=C(O)c1ccc(-n2nc(Oc3c(Cl)cccc3Cl)c3ccccc32)cc1    < 0.05 µM
4  O=C(O)c1ccc(-n2nc(C(=O)c3c(Cl)cccc3C(F)(F)F)c3ccccc32)cc1    < 0.05 µM
5  O=C(O)c1ccc(-n2nc(Oc3ccc(Cl)cc3C(F)(F)F)c3ccccc32)c(F)c1     > 0.1 µM
6  O=C(O)c1ccc(-n2nc(C(=O)c3c(Cl)cccc3Cl)c3cccnc32)cc1    < 0.05 µM

query: Need IC50, item `CCOC(=O)c1ccc(-n2nc(Oc3c(Cl)cccc3C(F)(F)F)c3ccccc32)c(F)c1`
result: 0.05 to 0.1 µM
